test system: RXF 393 renal; assay: NCI-60 one-dose screen, 48 h; details: 10 µM unless noted
Compounds without any hit were thinned out: in the full panel of roughly 83,000, 20% have a hit. The source made the active and inactive calls. The calls were made as follows: active = growth percent below 10; inactive = the rest.
Just give me one of these, please: true (1) = active, false (0) = inactive

Below, 3 compounds whose answers are already recorded.
OC(c1cc(-c2ccc(C(F)(F)F)cc2)nc(-c2ccc(C(F)(F)F)cc2)c1)C1CCCCN1 (centres undefined) :: true (1)
O=C(N=Nc1c(Cl)c(O)c2ccccc2c1O)C(=O)Nc1cccc(C(F)(F)F)c1 :: false (0)
CCCCCCCCCCCCCCCCCC1=NC(C)(C)CN1C(C)(C)CO :: true (1)

# ---- query compound ----
Ask | # outcome recorded in this test, key = C#CC[C@@H]1C[C@]2(C)[C@H]3CC[C@@H]4[C@H]5C(C(=C)C)CC[C@]5(C(=O)NCCCCN)CC[C@@]4(C)[C@]3(C)CC[C@H]2C(C)(C)[C@H]1OC(C)=O (some centres undefined)
Reply | true (1)

====

test system: SK-MEL-28 melanoma; assay: NCI-60 one-dose screen, 48 h (100 = growth as untreated, 0 = no growth, -100 = all killed); settings: 10 µM unless noted
About 83,000 compounds went through this panel and 20% of them were active in at least one assay; those are over-represented in the sample as a whole.
Threshold check on growth: strictly below 90% is MET; on or above 90% is NOT MET.

Below, 6 compounds whose answers are already recorded.
Oc1ccc(CCCCCCc2ccc(O)cc2)cc1 :: NOT MET
CCOC(=O)C(=CNc1ccccc1Cl)C(=O)OCC :: NOT MET
CCOC(C)(c1ccc(Cl)cc1)C1CCNCC1 (stereo not drawn) :: NOT MET
O=C(Nc1ccc(OS(=O)(=O)c2ccc(F)cc2)cc1)C12CC3CC(CC(C3)C1)C2 :: MET
CCc1ccc(-c2ccc(NC3CCCCCC3)nn2)cc1S(N)(=O)=O :: NOT MET
COc1ccc(C2CC(c3cccc(Nc4ccnc5cc(Cl)ccc45)c3)=NN2c2ccc(Cl)cc2)cc1 (stereo not drawn) :: MET

Ask | is_below(growth, 90%) for CC(=O)c1cccc(Nc2ncnc3ccc(NC(=O)c4ccco4)cc23)c1 ?
Reply | NOT MET

Ask | is_below(growth, 90%) for O=C(/C=C/c1ccccc1)C(Br)C(Br)c1ccccc1 (stereo not drawn) ?
Reply | MET

Ask | is_below(growth, 90%) for CCOC(=O)c1ccc(NC(=O)NC2=NCCS2)cc1 ?
Reply | MET

Ask | is_below(growth, 90%) for Cc1cc(C)c2c(n1)sc1c(Nc3ccc(Cl)cc3Cl)ncnc12 ?
Reply | MET

====

tested on: UACC-62 melanoma; assay: NCI-60 one-dose screen, 48 h (100 = growth as untreated, 0 = no growth, -100 = all killed); conditions: 10 µM unless noted
Compounds without any hit were thinned out: in the full panel of roughly 83,000, 20% have a hit.
metric: growth (%)
Write it as a number; the unit % goes unstated.

O=C(/C=C/c1cccc([N+](=O)[O-])c1)c1ccc(Nc2nc(N3CCCCC3)nc(N3CCCCC3)n2)cc1 :: 91
COc1ccc2[nH]c(C(=O)OCc3ccc4cccc(O)c4n3)cc2c1 :: -81
Cc1[nH]nc2ccc3nc(-c4ccc5[nH]ncc5c4)c4c(c3c12)CCCC4 :: 10.1
C=CCn1c(C)nc2cc(Nc3nc(N4CCOCC4)nc4nc[nH]c34)ccc21 :: 88.9
CC(OC(=O)Nc1cccc(Cl)c1)C(=O)O (stereo not drawn) :: 91.8
Cc1ccc(-c2cnc3sc4ccc(Cl)cc4n23)cc1 :: 87.9

COc1ccc(C(=O)c2cc(C)c(OC)c(C)c2)cc1OC(=O)CCl has a reported growth of 41.8

Clc1cc(Br)ccc1-c1ccc(CNCC2CCNCC2)o1 has a reported growth of 59.4

CCOC(=O)C(=CNc1ccccc1Cl)C(=O)OCC has a reported growth of 72.4

====

system: NCI-H460 lung; assay: NCI-60 one-dose screen, 48 h (100 = growth as untreated, 0 = no growth, -100 = all killed); conditions: 10 µM unless noted
The panel holds about 83,000 compounds, 20% with a hit somewhere; the sample as a whole holds those more often.
Examples of compounds with documented growth follow.
Write it as a number; the unit % goes unstated.

// solved cases for growth follow
Cc1ccc(NC(=O)c2[nH]c(SCCN(C)C)nc2-c2ccc(F)cc2)cc1Nc1ccc2ncn(C)c(=O)c2c1 :: 56.3
O=C(Nc1ccc(Br)cc1)Nc1ccccc1Cl :: 93.3
COc1cc(-c2nc(-c3nc4cc(C(=O)c5ccccc5)ccc4[nH]3)cc3c2[nH]c2ccccc23)cc(OC)c1OC :: 95.6

Field growth (NCI-H460 lung), entry Nc1nc(N)c2cc(CNc3ccc(Cl)c(Cl)c3)ccc2n1 : -48.8

Field growth (NCI-H460 lung), entry CCOP(=O)(O)OP(=O)(O)OCC : 103

Field growth (NCI-H460 lung), entry CC(=O)Nc1ccc(Cl)cc1Cl : 114

Field growth (NCI-H460 lung), entry CC1=C(O)C(=O)C(c2c(C)cc(C)c(Br)c2C)=C(O)C1=O : 35.5

Field growth (NCI-H460 lung), entry COc1cc2cc(C(=O)Nc3ccccc3)c(N)nc2cc1OC : -40.2

Field growth (NCI-H460 lung), entry O=[N+]([O-])c1cccc(N=C(Nc2cccc([N+](=O)[O-])c2)c2ccccc2)c1 : 102

Field growth (NCI-H460 lung), entry COc1cc(C(=O)/C=C/c2cn(-c3ccccc3)nc2-c2cccc(Nc3ccnc4cc(Cl)ccc34)c2)cc(OC)c1OC : 90.5

====

Examples of compounds with documented growth follow.
test system: NCI-H23 lung; test: NCI-60 one-dose screen, 48 h (100 = growth as untreated, 0 = no growth, -100 = all killed); conditions: 10 µM unless noted
About 83,000 compounds went through this panel and 20% of them were active in at least one assay; those are over-represented in the sample as a whole.
Write it as a number; the unit % goes unstated.

// solved cases for growth follow
O=[N+]([O-])c1cccc([I+]c2ccccc2)c1 :: 49.8
Cc1cc(C)c2c(n1)sc1c(Nc3ccc(OCc4ccccc4)cc3)ncnc12 :: 101
CCC1CCc2nc3sc(C(=O)Nc4cccc(F)c4)c(N)c3cc2C1 (centres undefined) :: 91.7
COc1ccc(C(=O)/C=C/c2cn(-c3ccccc3)nc2-c2cccc(Nc3ccnc4cc(Cl)ccc34)c2)cc1 :: 101

C=C(CN1CC=CCC1)[C@@H]1CC[C@]2(C(=O)OC)CC[C@]3(C)[C@H](CC[C@@H]4[C@@]5(C)CC[C@H](OC(C)=O)C(C)(C)[C@@H]5CC[C@]43C)[C@@H]12 has a reported growth of 95.5

CC1CN(CCCOC(=O)Nc2ccc(Cl)cc2)CCN1C(C)(C)C (centres undefined) has a reported growth of 101

COc1cc(/C=C2\C(=O)Nc3ccc(N(C)C)cc32)cc(OC)c1OC has a reported growth of 26.8

CCCCCCCCCCCCCCCCS(=O)(=O)Nc1cc(C(=O)NN)cc(C(=O)NN)c1 has a reported growth of 99.1

CC(C)N=C1CCCC1C(=S)SSC(=S)C1CCCC1=NC(C)C (centres undefined) has a reported growth of 75.5

====

Tested on: A549/ATCC NSCLC
Experiment: NCI-60 one-dose screen, 48 h
Details: 10 µM unless noted
Description: Growth inhibition of the A549/ATCC human Non-Small Cell Lung tumor cell line is measured as a screen for anti-cancer activity. Cells are grown in 96 well plates and exposed to the test compound for 48 hours. Compounds are tested at a single concentration, which is 10^-5 M for most compounds. The reported endpoint is percent growth (GI% or GIPRCNT), where numbers from 0 - 100% represent growth inhibition, and numbers from -100% - 0 represent cell death. […]
About 83,000 compounds went through this panel and 20% of them were active in at least one assay; those are over-represented in the sample as a whole. Calls of active or inactive are those of the source. The calls were made as follows: active = growth percent below 10; inactive = the rest.
Just give me one of these, please: y = active, n = inactive

Below, 6 molecules whose answers are already recorded.
Cc1nc2ccc(Nc3nc(NCCN4CCOCC4)nc(Nc4ccc(F)cc4)n3)cc2n1Cc1ccccc1 :: n
Oc1[nH]c2ccc(Cl)cc2c1/C=c1/ccc2c(c1)N=C(c1ccc(F)cc1)N=2 :: n
CC(=O)c1cc(C(=O)c2ccc3c(c2)Sc2ccccc2N3)c2c(C)cccn12 :: n
CC1(C)C2CCC(O)(C(=O)O)C1C2 (stereo not given) :: n
O=S(=O)(NCC[C@@H]1C[C@H]1c1ccc2ccccc2c1)c1ccc(C(F)(F)F)cc1 :: n
O=C1C(Cl)=C(N/N=c2/[nH][nH]/c(=N/NC3=C(Cl)C(=O)c4ccccc4C3=O)c3ccccc23)C(=O)c2ccccc21 :: n

Ask | # outcome recorded in this test, key = COc1cc2cc(C(=O)Nc3ccccc3)c(N)nc2cc1OC
Reply | n

Ask | # outcome recorded in this test, key = CN(C)c1ccc(/C=C(\C#N)c2nc3ccccc3n2C)cc1
Reply | n

Ask | # outcome recorded in this test, key = Oc1c(-c2cc(C(F)(F)F)[nH]n2)cc(Cl)c(OCc2ccc(Cl)cc2)c1-c1ccc(Cl)c(C(F)(F)F)c1
Reply | n

Ask | # outcome recorded in this test, key = O=C1Cc2c([nH]c3ccc([N+](=O)[O-])cc23)-c2ccccc2N1
Reply | n

Ask | # outcome recorded in this test, key = Cc1nc2c(-c3cnc(N)nc3)nc(N3CCOCC3)nc2n1C(C)C
Reply | y

Ask | # outcome recorded in this test, key = CC(=O)c1ccc(-n2c(-c3cc(-c4ccsc4)n[nH]3)n[nH]c2=S)cc1
Reply | n

Ask | # outcome recorded in this test, key = CCCCN(CCCC)CCCN=c1nc2c(c(N)n1-c1ccccc1)c(=S)n(-c1ccccc1)c(=S)n2-c1ccccc1
Reply | y

Ask | # outcome recorded in this test, key = CCC(=O)NC(O)C(Cl)(Cl)C(C)Cl (stereo not given)
Reply | n

Ask | # outcome recorded in this test, key = Cc1cc(C#Cc2ccccc2)ccc1-n1c(/C=C/c2ccc(F)cc2)nc2ccccc2c1=O
Reply | n

Ask | # outcome recorded in this test, key = Cc1cc(O)ccc1C1=NN(c2ccc(S(N)(=O)=O)cc2)C(=O)CC1
Reply | n

Ask | # outcome recorded in this test, key = Cc1ccc(/C=C/C(=N/N=C(N)N)c2ccccc2)cc1
Reply | n

Ask | # outcome recorded in this test, key = CCCCn1cnc(-c2cc(-c3ccccc3)cc(C(F)(F)F)c2)n1
Reply | n

Ask | # outcome recorded in this test, key = Nc1n[nH]c2ccc([C@@H]3Nc4c(F)cc5[nH]ncc5c4[C@H]4C5CCC(C5)[C@@H]34)cc12 (stereo not given in full)
Reply | n

Ask | # outcome recorded in this test, key = O=C1C=CC(=O)N1c1cccc(N2C(=O)C=CC2=O)c1
Reply | n
